Observed IC50 for Replicase polyprotein 1ab (Severe acute respiratory syndrome coronavirus 2), reported per entry below.
ENDPOINT NAME: IC50 (µM)

INSERT INTO assay_data (structure_smiles_string, endpoint_name, data_value) VALUES
  ('O=C1C=C(Sc2ccccc2)C(=O)c2ccccc21', 'IC50', 0.964),
  ('CCSC1=CC(=O)c2ccccc2C1=O', 'IC50', 5.35);
